testedOn: tyrosinase (Agaricus bisporus)
Sequence (C7FF04 2-392): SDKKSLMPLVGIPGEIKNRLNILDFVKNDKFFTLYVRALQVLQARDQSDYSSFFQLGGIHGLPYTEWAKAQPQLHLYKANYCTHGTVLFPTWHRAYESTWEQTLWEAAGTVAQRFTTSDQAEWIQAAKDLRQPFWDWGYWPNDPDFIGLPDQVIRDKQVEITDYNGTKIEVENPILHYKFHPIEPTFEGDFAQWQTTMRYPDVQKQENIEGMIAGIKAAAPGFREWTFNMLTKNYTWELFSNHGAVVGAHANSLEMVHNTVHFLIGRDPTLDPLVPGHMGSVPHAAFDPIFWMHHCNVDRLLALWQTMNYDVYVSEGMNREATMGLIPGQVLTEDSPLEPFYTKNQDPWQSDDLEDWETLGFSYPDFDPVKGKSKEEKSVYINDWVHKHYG
experimentNotes: Tyrosinase amperometric biosensor: IC50 and type of inhibition;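 further: Carbon-composite amperometric tyrosinase biosensors with polyurethane-entrapped enzyme, calibrated in a three-electrode cell against Ag/AgCl at room temperature, before versus after inhibitor exposure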
Format: biochemical
settings: Lineweaver-Burk plot; biosensor exposed 30 min to twice the lowest inhibiting concentration
quantityMeasured: Type of Inhibition Tyrosinase

> print(dat)
                             compoundstring               quantitymeasured   recordedvalue
1   COc1cc(C(=O)/C=C/c2ccc(OC)c(OC)c2)ccc1O  Type of Inhibition Tyrosinase  noncompetitive
2  COc1cc(/C=C/C(=O)c2cc(OC)c(OC)c(-c3cc(C(=O)/C=C/c4ccc(O)c(OC)c4)cc(OC)c3OC)c2)ccc1O  Type of Inhibition Tyrosinase           mixed
3  OC[C@H]1O[C@@H](Oc2ccc(-c3ccc(O)c(Br)c3)cc2Br)[C@H](O)[C@@H](O)[C@@H]1O  Type of Inhibition Tyrosinase  noncompetitive

Origin of measurements: paper PMC7321210
